The reported numbers originate from patent US10570104B2.

- assay_name: log Papp, octanol/TRIS buffer pH 7.4, shake flask direct method
- Format: physicochemical
- study_conditions: not told
property_name: Log Papp
The response must contain the number and no unit.

{"compound": "COCCOCCOCCOc1ccc(C2=N[C@@](C)(C(=O)O)CS2)c(O)c1 [Compound 5]", "Log Papp": "−1.10"}
{"compound": "COCCCCCCOc1ccc(C2=N[C@@](C)(C(=O)O)CS2)c(O)c1 [Compound 10]", "Log Papp": 0.95}
{"compound": "C[C@]1(C(=O)O)CSC(c2ccc(OCC(=O)O)cc2O)=N1 [Compound 14]", "Log Papp": "−1.98"}
{"compound": "C[C@]1(C(=O)O)CSC(c2ccc(OCCOCCO)cc2O)=N1 [Compound 8]", "Log Papp": "−0.53"}
{"compound": "C[C@]1(C(=O)O)CSC(c2ncccc2O)=N1 [Compound 1]", "Log Papp": "−1.77"}
{"compound": "COc1ccc(C2=N[C@@](C)(C(=O)O)CS2)c(O)c1 [Compound 4]", "Log Papp": "−0.70"}
{"compound": "C[C@]1(C(=O)O)CSC(c2cccc(O)c2O)=N1 [Compound 3]", "Log Papp": "−1.17"}
{"compound": "C[C@]1(C(=O)O)CSC(c2ccc(OCCCC(=O)O)cc2O)=N1 [Compound 13]", "Log Papp": "−2.21"}

Identify measured Log Papp corresponding to COCCOCCOc1ccc(C2=N[C@@](C)(C(=O)O)CS2)c(O)c1 [Compound 7]
−0.89

====

Log Papp by entry:
- assay_name: log Papp, octanol/TRIS buffer pH 7.4, shake flask direct method
- Assay type: physicochemical
- study_conditions: not told
- From the text: The redesign of 2 was predicated on the observation that both ligands 2 and 3 were orally active iron chelators in rodents and primates (Table 1), and that when the 4′-(OH) of 2 was methylated, providing (S)-4,5-dihydro-2-(2-hydroxy-4-methoxyphenyl)-4-methyl-4-thiazolecarboxylic acid^43 [(S)-4′-(CH3O)-DADFT, 4], there was a remarkable enhancement in both ICE and lipophilicity (log Papp). […]

Below, 3 compounds whose answers are already recorded.
{"compound_string": "C[C@]1(C(=O)O)CSC(c2ccc(O)cc2O)=N1", "Log Papp": "−1.05"}
{"compound_string": "C[C@]1(C(=O)O)CSC(c2ccc(OCCOCC(=O)O)cc2O)=N1", "Log Papp": "−1.63"}
{"compound_string": "C[C@]1(C(=O)O)CSC(c2ccc(OCCCCCC(=O)O)cc2O)=N1", "Log Papp": "−1.90"}

Identify measured Log Papp corresponding to C[C@]1(C(=O)O)CSC(c2ccc(OCCCCCCO)cc2O)=N1
0.21

Identify measured Log Papp corresponding to COCCOCCOCCOc1cccc(C2=N[C@@](C)(C(=O)O)CS2)c1O
−1.22
